The origin of these recorded values is the antibiotic and cytotoxicity screens of Wong et al. (2023).

Test system: HepG2
protocol.summary: cytotoxicity call (relative viability < 0.9)
assay.conditions: 10 µM
Among all 39,000 compounds or so, about 3,300 (8.5%) were called active. Shown is part of a subset that was picked to be rich in actives.
Respond using exactly one of the listed classes: active, inactive

>  <compound>
Cl.NNCc1ccccc1

>  <qualitative.label>
inactive

$$$$
>  <compound>
CNCC(=O)c1ccc(O)cc1

>  <qualitative.label>
inactive

$$$$
>  <compound>
COC(=O)C[C@@H]1CC[C@@H]2NC[C@H](O)COC[C@H]2O1

>  <qualitative.label>
inactive

$$$$
>  <compound>
O=c1n(Cl)c(=O)n(Cl)c(=O)n1Cl

>  <qualitative.label>
inactive

$$$$
>  <compound>
CCCCCCCCCCCCCCCC[n+]1ccccc1.[Cl-]

>  <qualitative.label>
active

$$$$
>  <compound>
CCN(CC)S(=O)(=O)c1ccc(Cn2nc(C(=O)Nc3ccc(N4CCCCC4)cc3)c3ccccc32)cc1

>  <qualitative.label>
inactive

$$$$

Assay result, entry CN(C)C(=O)CN1CCN(C)C(=O)[C@]12CCN(c1ncccn1)C2 — outcome?
inactive

Can you look up the reported call for [NH2][Pt]1([NH2])[O]C(=O)C2(CCC2)C(=O)[O]1 for me?
inactive

# fetch the recorded call for OC1(c2cccnc2)CCNCC1 here
inactive

For CCOC(OCC)P(=O)(O)CCCN , what call appears in the results of this test?
inactive

----------
System: HepG2
protocol.summary: cytotoxicity call (relative viability < 0.9)
assay.conditions: 10 µM
Screen size: about 39,000 compounds; about 3,300 (8.5%) were called active. Many of the other results were omitted from the sample, so actives are more common in it than they were.
reported.property: cytotoxicity call

// known answers, use as guide
>  <compound>
C=C[C@H]1[C@H](O[C@@H]2O[C@H](CO)[C@@H](O)[C@H](O)[C@H]2O)OC=C2C(=O)OCC[C@H]21

>  <cytotoxicity call>
inactive

$$$$
>  <compound>
CO[C@H]1[C@H](O)[C@@H](O[C@H]2[C@@H](C)O[C@@H](O[C@H]3[C@H](C)O[C@H](O[C@H]4CC[C@@]5(C)[C@@H](CC[C@@]6(O)[C@@H]5C[C@@H](O)[C@]5(C)[C@]6(O)CC[C@@]5(O)[C@@H](C)O)C4)C[C@@H]3OC)C[C@H]2OC)O[C@@H](C)[C@H]1O

>  <cytotoxicity call>
inactive

$$$$
>  <compound>
Clc1ccc(Cl)cc1

>  <cytotoxicity call>
inactive

$$$$
>  <compound>
C[C@@H]1CN([C@@H](C)CO)C(=O)CCCn2nncc2CO[C@@H]1CN(C)C(=O)Oc1cccc2ccccc12

>  <cytotoxicity call>
inactive

$$$$
>  <compound>
CC(=O)OC1CC(OC2C(O)CC(OC3C(O)CC(OC4CCC5(C)C(CCC6C5CC(O)C5(C)C(C7=CC(=O)OC7)CCC65O)C4)OC3C)OC2C)OC(C)C1OC1OC(CO)C(O)C(O)C1O (stereo not drawn)

>  <cytotoxicity call>
active

$$$$
>  <compound>
C[C@H]1C[C@@H](O)[C@]2(O)[C@@]13CC(=O)OC[C@@]2(C)[C@](C)(O)C(=O)C3

>  <cytotoxicity call>
inactive

$$$$
>  <compound>
Oc1ccc(Cl)cc1Cc1cc(Cl)ccc1O

>  <cytotoxicity call>
active

$$$$

Let us move to another entry and its cytotoxicity call.
Entry CC12CCC3C(CCC4CC(O)CCC43C)C1CCC2=O (stereo not drawn) : reported cytotoxicity call = ?
inactive

----------
Test system: HepG2
protocol.summary: cytotoxicity call (relative viability < 0.9)
assay.conditions: 10 µM
In all, about 39,000 compounds went through this assay and about 3,300 (8.5%) were called active. For the sample, actives were picked, then their nearest neighbours and some compounds at random.
Pick from y (active), n (inactive) when you respond.

>  <molecule>
C[C@H](CO)N1C[C@H](C)[C@H](CN(C)C(=O)Oc2cccc3ccccc23)OCc2cnnn2CCCC1=O

>  <target.under.test>
HepG2

>  <qualitative.label>
n

$$$$
>  <molecule>
Cc1ccc(N=CN(C)C=Nc2ccc(C)cc2C)c(C)c1

>  <target.under.test>
HepG2

>  <qualitative.label>
n

$$$$
>  <molecule>
CC1=CC(=O)c2c(O)cccc2C1=O

>  <target.under.test>
HepG2

>  <qualitative.label>
y

$$$$
>  <molecule>
CCCCOC(=O)c1ccccc1C(=O)OCCCC

>  <target.under.test>
HepG2

>  <qualitative.label>
y

$$$$
>  <molecule>
Oc1cc(Cl)ccc1Oc1ccc(Cl)cc1Cl

>  <target.under.test>
HepG2

>  <qualitative.label>
n

$$$$
>  <molecule>
COC(=O)C[C@](O)(CCC(C)(C)O)C(=O)O[C@@H]1C(OC)=C[C@]23CCCN2CCc2cc4c(cc2[C@H]13)OCO4

>  <target.under.test>
HepG2

>  <qualitative.label>
y

$$$$

What did this assay record as the result for CNCC(=O)c1ccc(O)c(O)c1 ?
n

// param item: C[C@@]1(O)[C@H](O)[C@@H](CO)O[C@H]1n1ccc2c(N)ncnc21 ; yields the recorded call
n

----------
Tested on: HepG2
protocol.summary: cytotoxicity call (relative viability < 0.9)
assay.conditions: 10 µM
Among all 39,000 compounds or so, about 3,300 (8.5%) were called active. Shown is part of a subset that was picked to be rich in actives.

>  <compound>
COc1cc2c(cc1O)CCNC2C (stereo not drawn)

>  <cytotoxicity call>
inactive

$$$$
>  <compound>
C[C@@H]1[C@H](O)[C@@H](C)/C=C\C=C/CC\C=C/C=C\C=C/C=C\[C@H](O[C@@H]2O[C@H](C)[C@@H](O)[C@H](N)[C@@H]2O)C[C@@H]2O[C@](O)(C[C@@H](O)[C@H](O)CC[C@@H](O)C[C@@H](O)C[C@@H](O)CC(=O)O[C@H]1C)C[C@H](O)[C@H]2C(=O)O

>  <cytotoxicity call>
inactive

$$$$
>  <compound>
O=C(O)c1ccc(=O)[nH]c1

>  <cytotoxicity call>
inactive

$$$$

----------
Tested on: HepG2
protocol.summary: cytotoxicity call (relative viability < 0.9)
assay.conditions: 10 µM
The campaign covered roughly 39,000 compounds. About 3,300 (8.5%) were called active. This excerpt belongs to a sample that is enriched for actives.
Respond using exactly one of the listed classes: yes = active, no = inactive

>  <compound>
N#[N+]CC(=O)OC[C@H](N)C(=O)O

>  <qualitative.label>
no

$$$$
>  <compound>
Cl.O=C1CCC2(O)C3Cc4ccc(O)c5c4C2(CCN3CC2CC2)C1O5 (stereo unspecified)

>  <qualitative.label>
no

$$$$
>  <compound>
NC1(c2ccc(F)cc2)CCC1

>  <qualitative.label>
no

$$$$
>  <compound>
Cc1cc([N+](=O)[O-])cnc1N1CCNCC1

>  <qualitative.label>
no

$$$$

Record lookup: outcome of this test for COC(=O)[C@@H]1[C@@H](CO)[C@@H]2Cn3c(cccc3=O)[C@H]1N2C(=O)C1CC1 ?
no

Assay result, entry NCCc1[nH]nc2c1CCCC2 — outcome?
no

----------
System: HepG2
protocol.summary: cytotoxicity call (relative viability < 0.9)
assay.conditions: 10 µM
Hit rate of the full screen: of about 39,000 compounds, about 3,300 (8.5%) were called active. The entries come from a sample that favours actives as a whole.

>  <smiles.input>
NCCc1ccc(S(=O)(=O)F)cc1

>  <target.under.test>
HepG2

>  <cytotoxicity call>
inactive

$$$$
>  <smiles.input>
O=S(=O)(N[C@H]1CCO[C@]2(CCNC2)C1)C1CC1

>  <target.under.test>
HepG2

>  <cytotoxicity call>
inactive

$$$$
>  <smiles.input>
CN1CCN([C@@H](CN)c2ccc3c(c2)OCO3)CC1

>  <target.under.test>
HepG2

>  <cytotoxicity call>
inactive

$$$$

----------
Test system: HepG2
protocol.summary: cytotoxicity call (relative viability < 0.9)
assay.conditions: 10 µM
In all, about 39,000 compounds went through this assay and about 3,300 (8.5%) were called active. This excerpt belongs to a sample that is enriched for actives.
Please state which outcome applies, choosing from YES = active, NO = inactive

Solved entries:
>  <molecule>
COc1ccc(OC)c(C(O)C(C)N)c1.Cl (stereo unspecified)

>  <qualitative.label>
YES

$$$$
>  <molecule>
Cc1c(N)nc([C@H](CC(N)=O)NC[C@@H](N)C(N)=O)nc1C(=O)N[C@H](C(=O)N[C@@H](C)[C@H](O)[C@@H](C)C(=O)N[C@@H](C(=O)NCCc1nc(-c2nc(C(=O)NCCC[S+](C)C)cs2)cs1)[C@@H](C)O)[C@@H](O[C@H]1O[C@H](CO)[C@H](O)[C@@H](O)[C@H]1O[C@H]1O[C@H](CO)[C@@H](O)[C@H](OC(N)=O)[C@@H]1O)c1c[nH]cn1

>  <qualitative.label>
NO

$$$$
>  <molecule>
O=C(NC[C@H]1CC[C@]2(CNCCOC2)O1)c1ccnnc1

>  <qualitative.label>
NO

$$$$
>  <molecule>
CC(N)C(O)c1ccccc1.Cl (stereo unspecified)

>  <qualitative.label>
NO

$$$$
>  <molecule>
CN1[C@@H]2C[C@@H](O)C[C@H]1[C@@H]1O[C@@H]12

>  <qualitative.label>
NO

$$$$

What is the recorded call for this molecule in the test? C=CC1CN2CCC1CC2C(O)c1ccnc2ccccc12 (stereo unspecified)
NO

Short answer needed: outcome of this test for C=CC1CN2CCC1CC2C(OC(=O)OCC)c1ccnc2ccc(OC)cc12 (stereo unspecified) ?
NO

GET /call?item= C/C=C(\C)C(=O)O[C@H]1C[C@@H](OC(C)=O)[C@@]2(C(=O)OC)CO[C@H]3[C@@H](O)[C@@](C)([C@]45O[C@@]4(C)[C@H]4C[C@@H]5O[C@H]5OC=C[C@@]54O)[C@H]4[C@]1(CO[C@]4(O)C(=O)OC)[C@@H]32 returns the recorded outcome of this test.
NO

What did the test return for CC(=O)OC1CCC2(C)C(CCC3C2CCC2(C)C(C4=CC(=O)OC4)C(OC(C)=O)CC32O)C1 (stereo unspecified) ?
YES

What is the recorded call for this molecule in the test? CCC1CN2CCC1CC2C(O)c1ccnc2ccc(OC)cc12 (stereo unspecified)
YES

Would you mind telling me which call this test gave Cc1cc(C(=O)N2CC[C@H]3[C@@H]2CCN3C)no1 ?
NO
